- System: Streptococcus Group 9960
OUTCOME_MEASURE: MIC (µg/mL)

COMPOUND | RESULT_VALUE
CCC(=O)OC1C(OC2C(CC=O)CC(C)C(=O)C=CC(C)=CC(COC(C)=O)C(CC)OC(=O)CC(O)C2C)OC(C)C(OC2CC(C)(O)C(O)C(C)O2)C1N(C)C (stereo not drawn) | 1
CCC1OC(=O)CC(O)C(C)C(OC2OC(C)C(OC3CC(C)(O)C(O)C(C)O3)C(N(C)C)C2OC(=O)Cc2ccccc2)C(CC=O)CC(C)C(=O)C=CC(C)=CC1COC(=O)Cc1ccccc1 (stereo not drawn) | 1
CCC1OC(=O)CC(O)C(C)C(OC2OC(C)C(OC3CC(C)(O)C(O)C(C)O3)C(N(C)C)C2OC(C)=O)C(CC=O)CC(C)C(=O)C=CC(C)=CC1COC(C)=O (stereo not drawn) | 1
